- TEST_DESCRIPTION: Intrinsic clearance in rat liver microsomes at 20 uM at 37 degC measured after 120 mins in presence of NADPH-regenerating system by UPLC-MS analysis
- Format: ADME, microsome
- CONDITION_SET: read-out: CLH
MEASURED_PROPERTY: microsomal CLint at 20 µM (µL/min/mg)
Give just the numeric value; µL/min/mg need not be written.

{"columns": ["CPD_SMILES", "UNIT_LABEL", "microsomal CLint at 20 µM"],
 "data": [
  ["O=S(=O)(c1cncc2ccccc12)N1CCC[C@H]1CCN1CCN(c2nsc3ccccc23)CC1", "µL/min/mg", 1.73]
]}

Let's switch to this compound now.
# input Consider the compound `O=S(=O)(c1cncc2ccccc12)N1CCC[C@H]1CCN1CCN(c2cccc3sccc23)CC1` . State its measured microsomal CLint at 20 µM.
# output 2.81

* * *

- TARGET_UNDER_TEST: 5-hydroxytryptamine receptor 7 (Homo sapiens, UniProt P34969)
- Sequence (P34969 whole entry): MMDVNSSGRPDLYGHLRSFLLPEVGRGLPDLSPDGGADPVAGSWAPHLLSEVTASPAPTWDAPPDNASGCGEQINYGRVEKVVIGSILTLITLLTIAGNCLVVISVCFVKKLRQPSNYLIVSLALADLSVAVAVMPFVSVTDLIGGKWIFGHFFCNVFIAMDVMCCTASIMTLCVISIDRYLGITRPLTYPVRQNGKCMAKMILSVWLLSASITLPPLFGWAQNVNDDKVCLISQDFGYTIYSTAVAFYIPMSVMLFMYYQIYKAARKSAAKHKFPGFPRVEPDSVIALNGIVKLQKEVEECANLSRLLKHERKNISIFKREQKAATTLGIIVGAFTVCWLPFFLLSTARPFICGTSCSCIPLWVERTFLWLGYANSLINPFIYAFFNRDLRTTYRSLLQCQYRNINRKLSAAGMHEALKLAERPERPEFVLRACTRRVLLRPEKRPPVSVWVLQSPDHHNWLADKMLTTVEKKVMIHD
- TEST_DESCRIPTION: biochemical
- Description: Displacement of [3H]-5-CT from human 5-HT7R expressed in HEK293 cell membranes after 1 hr at 37 degC by microbeta counting method
So basically, if Ki comes in under 50 nM it's T, and if it's 50 nM or more it's F.

Use the examples below as a reference point.
{"columns": ["CPD_SMILES", "ASSIGNED_CATEGORY"],
 "data": [
  ["O=S(=O)(c1cccc2ncccc12)N1CC[C@@H]1CCN1CCN(c2nsc3ccccc23)CC1", "F"],
  ["O=S(=O)(c1cncc2ccccc12)N1CCC[C@H]1CCN1CCC(c2noc3cc(F)ccc23)CC1", "T"],
  ["O=S(=O)(c1cccc2ncccc12)N1CCCC[C@@H]1CCN1CCN(c2nsc3ccccc23)CC1", "F"]
]}

# input Identify whether the compound `O=S(=O)(c1cncc2ccccc12)N1CCC[C@H]1CCN1CCN(c2nsc3ccccc23)CC1` records Ki below 50 nM.
# output T

# input Identify whether the compound `O=S(=O)(c1cccc2ncccc12)N1CCC[C@@H]1CCN1CCC(c2noc3cc(F)ccc23)CC1` records Ki below 50 nM.
# output T

# input Identify whether the compound `O=S(=O)(c1cccc2cnccc12)N1CCC[C@H]1CCN1CCN(c2nsc3ccccc23)CC1` records Ki below 50 nM.
# output T

* * *

- TEST_DESCRIPTION: Tmax in Wistar rat plasma at 9 mg/kg per os administered as a single dose by LC-MS/MS analysis
- Assay type: ADME, organism-based
- CONDITION_SET: po
MEASURED_PROPERTY: Tmax (min)
Give just the numeric value; min need not be written.

# input Consider the molecule `O=S(=O)(c1cncc2ccccc12)N1CCC[C@H]1CCN1CCN(c2cccc3sccc23)CC1` . State its measured Tmax.
# output 10

* * *

- TEST_DESCRIPTION: Toxicity in ip dosed Sprague-Dawley rat assessed as induction of catalepsy measured every 30 mins up to 240 mins by bar test
- Format: organism-based
- CONDITION_SET: Sprague-Dawley, in vivo
MEASURED_PROPERTY: MTD (mg/kg)
Give just the numeric value; mg/kg need not be written.

Before answering, review these 2 worked examples.
{"columns": ["CPD_SMILES", "MTD (mg/kg)"],
 "data": [
  ["O=C(CCCN1CCC(O)(c2ccc(Cl)cc2)CC1)c1ccc(F)cc1", 0.2],
  ["Cc1cc2c(s1)Nc1ccccc1N=C2N1CCN(C)CC1", 40]
]}

Let's switch to this compound now.
# input Consider the compound `O=S(=O)(c1cncc2ccccc12)N1CCC[C@H]1CCN1CCN(c2nsc3ccccc23)CC1` . State its measured MTD.
# output 30
